Values from ChEMBL document CHEMBL3046228

// values below are reported ED80
tested on: Abutilon theophrasti; assay: Herbicidal activity against Abutilon theophrasti (velvetleaf) assessed as induction of plant damage applied through foliar spraying; format: functional
Observable: ED80 (gAi/ha)

                                    molecule  comparator  value_measured
 0  CC1CC(=O)C(C(=O)c2ccc(Cl)cc2[N+](=O)[O-])C(=O)C1 (centres undefined)           =             125
 1  CC1(C)CC(=O)C(C(=O)c2ccc(Cl)cc2[N+](=O)[O-])C(=O)C1           =             125
 2  CS(=O)(=O)c1ccc(C(=O)C2C(=O)C[C@H]3C[C@H]3C2=O)c(Cl)c1 (relative stereo)           =              16
 3  O=C1CC2CCCC2C(=O)C1C(=O)c1ccc(Cl)cc1[N+](=O)[O-] (centres undefined)           =             500
 4  CCCC1CC(=O)C(C(=O)c2ccc(Cl)cc2[N+](=O)[O-])C(=O)C1 (centres undefined)           >            2000
 5  O=C1CC2CCCCC2C(=O)C1C(=O)c1ccc(Cl)cc1[N+](=O)[O-] (centres undefined)           =             500
 6  O=C1C[C@H]2C[C@H]2C(=O)C1C(=O)c1ccc(Cl)cc1[N+](=O)[O-] (relative stereo)           =              16
 7  CC1CC(=O)C(C(=O)c2ccc(Cl)cc2[N+](=O)[O-])C(=O)C1C (centres undefined)           =             125
 8  CSc1ccc(C(=O)C2C(=O)C[C@H]3C[C@H]3C2=O)c([N+](=O)[O-])c1 (relative stereo)           =              16
 9  CC1CCC(=O)C(C(=O)c2ccc(Cl)cc2[N+](=O)[O-])C1=O (centres undefined)           =              63
10  COc1ccc(C(=O)C2C(=O)C[C@H]3C[C@H]3C2=O)c([N+](=O)[O-])c1 (relative stereo)           =             125
11  Cc1cc(S(C)(=O)=O)ccc1C(=O)C1C(=O)C[C@H]2C[C@H]2C1=O (relative stereo)           =              16
12  CSCC1CC(=O)C(C(=O)c2ccc(Cl)cc2[N+](=O)[O-])C(=O)C1 (centres undefined)           =              63
13  CS(=O)(=O)c1ccc(C(=O)C2C(=O)CCCC2=O)c(Cl)c1           =              16
14  COCC1CC(=O)C(C(=O)c2ccc(Cl)cc2[N+](=O)[O-])C(=O)C1 (centres undefined)           =             125
15  CS(=O)(=O)c1ccc(C(=O)C2C(=O)C[C@H]3C[C@H]3C2=O)c([N+](=O)[O-])c1 (relative stereo)           =              16
16  CCCCC1CC(=O)C(C(=O)c2ccc(Cl)cc2[N+](=O)[O-])C(=O)C1 (centres undefined)           =             500
17  O=C1C[C@H]2C[C@H]2C(=O)C1C(=O)c1ccc(C(F)(F)F)cc1[N+](=O)[O-] (relative stereo)           =              16
18  O=C1CCCC(=O)C1C(=O)c1ccc(Cl)cc1[N+](=O)[O-]           =              31
